- System: RAW264.7
- runDescription: Inhibition of LPS-induced nitric oxide production in mouse RAW264.7 cells pretreated for 1 hr followed by LPS-stimulation and measured after 24 hrs by Griess assay
- Assay type: functional, cell-based
pIC50: −log10 of the molar value.
Each entry below carries its reported pIC50.
measuredEndpoint: pIC50

[
  {
    "smiles": "O=c1c(-c2ccc(O)cc2O)coc2cc(O)cc(O)c12",
    "studySystem": "RAW264.7",
    "measuredEndpoint": "pIC50",
    "measurementQualifier": "<",
    "observedResult": 6.00
  },
  {
    "smiles": "COc1cc(O[C@@H]2O[C@H](CO)[C@@H](O)[C@H](O)[C@H]2O)cc2occ(-c3ccc(O[C@@H]4O[C@H](CO)[C@@H](O)[C@H](O)[C@H]4O)cc3O)c(=O)c12",
    "studySystem": "RAW264.7",
    "measuredEndpoint": "pIC50",
    "measurementQualifier": "=",
    "observedResult": 6.38
  },
  {
    "smiles": "O=c1c(-c2ccc(O)cc2)coc2cc(O[C@@H]3O[C@H](CO)[C@@H](O)[C@H](O)[C@H]3O)cc(O)c12",
    "studySystem": "RAW264.7",
    "measuredEndpoint": "pIC50",
    "measurementQualifier": "<",
    "observedResult": 6.00
  },
  {
    "smiles": "COc1cc(O)cc2c1C(=O)[C@]1(O)c3ccc(O)cc3O[C@@H]1O2",
    "studySystem": "RAW264.7",
    "measuredEndpoint": "pIC50",
    "measurementQualifier": "=",
    "observedResult": 6.42
  },
  {
    "smiles": "O=c1c(-c2ccc(O)cc2O)coc2cc(O[C@@H]3O[C@H](CO)[C@@H](O)[C@H](O)[C@H]3O)cc(O)c12",
    "studySystem": "RAW264.7",
    "measuredEndpoint": "pIC50",
    "measurementQualifier": "<",
    "observedResult": 6.00
  },
  {
    "smiles": "COc1cc(O)cc2occ(-c3ccc(O)cc3)c(=O)c12",
    "studySystem": "RAW264.7",
    "measuredEndpoint": "pIC50",
    "measurementQualifier": "<",
    "observedResult": 6.00
  },
  {
    "smiles": "O=c1c(-c2ccc(O)cc2)coc2cc(O)cc(O)c12",
    "studySystem": "RAW264.7",
    "measuredEndpoint": "pIC50",
    "measurementQualifier": "<",
    "observedResult": 6.00
  },
  {
    "smiles": "O=c1c(-c2ccc(O)cc2O)coc2cc(O[C@@H]3O[C@H](CO[C@@H]4O[C@H](CO)[C@@H](O)[C@H](O)[C@H]4O)[C@@H](O)[C@H](O)[C@H]3O)cc(O)c12",
    "studySystem": "RAW264.7",
    "measuredEndpoint": "pIC50",
    "measurementQualifier": "=",
    "observedResult": 6.22
  },
  {
    "smiles": "COc1cc(-c2coc3cc(O[C@@H]4O[C@H](CO)[C@@H](O)[C@H](O)[C@H]4O)cc(OC)c3c2=O)ccc1O",
    "studySystem": "RAW264.7",
    "measuredEndpoint": "pIC50",
    "measurementQualifier": "<",
    "observedResult": 6.00
  },
  {
    "smiles": "O=c1c(-c2ccc(O)cc2)coc2cc(O[C@@H]3O[C@H](CO[C@@H]4O[C@H](CO)[C@@H](O)[C@H](O)[C@H]4O)[C@@H](O)[C@H](O)[C@H]3O)cc(O)c12",
    "studySystem": "RAW264.7",
    "measuredEndpoint": "pIC50",
    "measurementQualifier": "<",
    "observedResult": 6.00
  },
  {
    "smiles": "CC(=N)NCCCC[C@H](N)C(=O)O",
    "studySystem": "RAW264.7",
    "measuredEndpoint": "pIC50",
    "measurementQualifier": "=",
    "observedResult": 5.81
  },
  {
    "smiles": "COc1cc(-c2coc3cc(O)cc(OC)c3c2=O)ccc1O",
    "studySystem": "RAW264.7",
    "measuredEndpoint": "pIC50",
    "measurementQualifier": "<",
    "observedResult": 6.00
  },
  {
    "smiles": "COc1cc(O)cc2occ(-c3ccc(O)cc3O)c(=O)c12",
    "studySystem": "RAW264.7",
    "measuredEndpoint": "pIC50",
    "measurementQualifier": "=",
    "observedResult": 6.22
  },
  {
    "smiles": "O=c1c(-c2ccc(O[C@@H]3O[C@H](CO)[C@@H](O)[C@H](O)[C@H]3O)cc2O)coc2cc(O[C@@H]3O[C@H](CO)[C@@H](O)[C@H](O)[C@H]3O)cc(O)c12",
    "studySystem": "RAW264.7",
    "measuredEndpoint": "pIC50",
    "measurementQualifier": "=",
    "observedResult": 6.15
  },
  {
    "smiles": "COc1cc(O[C@@H]2O[C@H](CO)[C@@H](O)[C@H](O)[C@H]2O)cc2occ(-c3ccc(O)cc3O)c(=O)c12",
    "studySystem": "RAW264.7",
    "measuredEndpoint": "pIC50",
    "measurementQualifier": "<",
    "observedResult": 6.00
  }
]
